So I've got Kd readings for Casein kinase I isoform delta (Homo sapiens, UniProt P48730), take a look.
Active and inactive are the calls of the source.

Compound: CN(C[C@@H]1COCCO1)S(=O)(=O)Nc1ccc2ccc3ncc(-c4cnn(C)c4)cc3c(=O)c2c1 [MK-2461]
Experimental system: Casein kinase I isoform delta (Homo sapiens, UniProt P48730); note: in the data inactive means no Kd found up to 30 µM
Sequence (P48730 whole entry, canonical isoform): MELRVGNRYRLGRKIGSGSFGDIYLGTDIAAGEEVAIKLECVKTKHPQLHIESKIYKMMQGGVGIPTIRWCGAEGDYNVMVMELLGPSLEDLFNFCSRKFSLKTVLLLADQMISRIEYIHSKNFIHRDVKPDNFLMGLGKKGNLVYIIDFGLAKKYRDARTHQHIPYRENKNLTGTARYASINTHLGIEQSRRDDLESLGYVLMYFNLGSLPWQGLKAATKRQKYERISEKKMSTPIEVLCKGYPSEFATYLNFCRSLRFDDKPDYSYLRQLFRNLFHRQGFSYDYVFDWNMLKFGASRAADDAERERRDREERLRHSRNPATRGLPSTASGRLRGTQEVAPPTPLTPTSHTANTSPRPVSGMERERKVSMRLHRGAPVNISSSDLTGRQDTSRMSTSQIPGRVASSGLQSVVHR
Kd: > 30 µM (inactive)

Compound: COc1cc2ncnc(Oc3cccc(NC(=O)Nc4cc(C(C)(C)C(F)(F)F)on4)c3)c2cc1OC [CEP-32496]
Experimental system: Casein kinase I isoform delta (Homo sapiens, UniProt P48730); note: in the data inactive means no Kd found up to 30 µM
Kd: > 30 µM (inactive)

Compound: CCn1c(C(=O)N(C2CC2)C2CC2)cc2c3c(ncn3C)c(Nc3cc(C)n(C)n3)nc21 [BMS-911543]
Experimental system: Casein kinase I isoform delta (Homo sapiens, UniProt P48730); note: in the data inactive means no Kd found up to 30 µM
Kd: > 30 µM (inactive)

Compound: CCS(=O)(=O)c1cccc(-c2cc(C(=O)NC3CCN(C)CC3)c(C)c3[nH]c4ncc(C)cc4c23)c1 [TAK-901]
Experimental system: Casein kinase I isoform delta (Homo sapiens, UniProt P48730); note: in the data inactive means no Kd found up to 30 µM
Kd: > 30 µM (inactive)

Compound: CO[C@H]1C[C@@H]2CC[C@@H](C)[C@@](O)(O2)C(=O)C(=O)N2CCCC[C@H]2C(=O)O[C@H]([C@H](C)C[C@@H]2CC[C@@H](OP(C)(C)=O)[C@H](OC)C2)CC(=O)[C@H](C)/C=C(\C)[C@@H](O)[C@@H](OC)C(=O)[C@H](C)C[C@H](C)/C=C/C=C/C=C/1C [RIDAFOROLIMUS]
Experimental system: Casein kinase I isoform delta (Homo sapiens, UniProt P48730); note: in the data inactive means no Kd found up to 30 µM
Kd: > 30 µM (inactive)

Compound: C[C@H]1CNCCCN1S(=O)(=O)c1cccc2cncc(F)c12
Experimental system: Casein kinase I isoform delta (Homo sapiens, UniProt P48730); note: in the data inactive means no Kd found up to 30 µM
Kd: > 30 µM (inactive)

Compound: CC(C)(C)c1nc(-c2cccc(NS(=O)(=O)c3c(F)cccc3F)c2F)c(-c2ccnc(N)n2)s1 [DABRAFENIB]
Experimental system: Casein kinase I isoform delta (Homo sapiens, UniProt P48730); note: in the data inactive means no Kd found up to 30 µM
Kd: > 30 µM (inactive)

Compound: Cn1cnc2c(F)c(Nc3ccc(Br)cc3F)c(C(=O)NOCCO)cc21 [BINIMETINIB]
Experimental system: Casein kinase I isoform delta (Homo sapiens, UniProt P48730); note: in the data inactive means no Kd found up to 30 µM
Kd: > 30 µM (inactive)

* * *

# Experimental system: UniProtKB Q9NSY1
# Sequence (Q9NSY1 whole entry): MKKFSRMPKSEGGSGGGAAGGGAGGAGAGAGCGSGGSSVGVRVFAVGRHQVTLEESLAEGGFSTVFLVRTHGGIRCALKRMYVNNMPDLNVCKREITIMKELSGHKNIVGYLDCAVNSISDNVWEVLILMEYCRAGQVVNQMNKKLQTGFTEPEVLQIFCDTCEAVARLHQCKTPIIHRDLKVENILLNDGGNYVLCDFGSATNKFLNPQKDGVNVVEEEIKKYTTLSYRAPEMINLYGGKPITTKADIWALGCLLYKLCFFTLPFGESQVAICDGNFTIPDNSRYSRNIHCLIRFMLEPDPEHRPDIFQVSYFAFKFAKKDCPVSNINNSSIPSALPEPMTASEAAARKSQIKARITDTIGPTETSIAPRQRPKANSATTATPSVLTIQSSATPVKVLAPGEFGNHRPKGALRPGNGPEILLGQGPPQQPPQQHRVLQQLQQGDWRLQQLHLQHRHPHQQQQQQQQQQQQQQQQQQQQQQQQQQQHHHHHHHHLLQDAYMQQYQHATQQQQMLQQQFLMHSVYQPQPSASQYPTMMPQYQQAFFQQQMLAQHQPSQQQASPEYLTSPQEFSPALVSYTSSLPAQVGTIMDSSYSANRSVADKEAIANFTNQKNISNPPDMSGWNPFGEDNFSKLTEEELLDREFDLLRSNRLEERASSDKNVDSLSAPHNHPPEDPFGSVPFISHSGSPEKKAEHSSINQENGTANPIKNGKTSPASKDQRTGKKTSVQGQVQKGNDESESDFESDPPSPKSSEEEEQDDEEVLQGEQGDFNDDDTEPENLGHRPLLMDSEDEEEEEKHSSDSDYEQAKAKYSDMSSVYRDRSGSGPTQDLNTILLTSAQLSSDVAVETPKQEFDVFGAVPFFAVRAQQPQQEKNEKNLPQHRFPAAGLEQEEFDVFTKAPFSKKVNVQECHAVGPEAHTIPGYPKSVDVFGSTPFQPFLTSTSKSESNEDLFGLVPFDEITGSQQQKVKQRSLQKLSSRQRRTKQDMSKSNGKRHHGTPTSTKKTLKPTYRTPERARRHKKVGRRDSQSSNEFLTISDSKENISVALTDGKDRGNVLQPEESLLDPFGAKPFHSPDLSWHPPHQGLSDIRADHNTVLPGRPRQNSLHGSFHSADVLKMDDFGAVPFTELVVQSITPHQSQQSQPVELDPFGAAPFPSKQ
Active and inactive are the calls of the source.
Outcomes: active, inactive

Compound: COc1cc(Nc2ncc3c(n2)-c2ccc(Cl)cc2C(c2c(F)cccc2OC)=NC3)ccc1C(=O)O [ALISERTIB]
Label class: inactive
//
Compound: CO[C@H]1C[C@@H]2CC[C@@H](C)[C@@](O)(O2)C(=O)C(=O)N2CCCC[C@H]2C(=O)O[C@H]([C@H](C)C[C@@H]2CC[C@@H](O)[C@H](OC)C2)CC(=O)[C@H](C)/C=C(\C)[C@@H](O)[C@@H](OC)C(=O)[C@H](C)C[C@H](C)/C=C/C=C/C=C/1C [SIROLIMUS]
Label class: inactive
//
Compound: COc1cc([C@@H]2c3cc4c(cc3[C@H](O)[C@H]3COC(=O)[C@@H]23)OCO4)cc(OC)c1OC [AXL-1717]
Label class: inactive
//
Compound: COCc1c(-c2ccc(NC(=O)Nc3cc(C(F)(F)F)ccc3F)c(F)c2)c2c(N)ncnn2c1CN1CCOCC1
Label class: inactive
//
Compound: COc1cc2ncnc(Oc3cccc(NC(=O)Nc4cc(C(C)(C)C(F)(F)F)on4)c3)c2cc1OC [CEP-32496]
Label class: inactive
//
Compound: Cc1[nH]c(/C=C2\C(=O)Nc3ccccc32)c(C)c1CCC(=O)O [ORANTINIB]
Label class: active
//
Compound: C[C@H]1CNCCCN1S(=O)(=O)c1cccc2cncc(F)c12
Label class: inactive
//
Compound: C[C@@H](Oc1cc(C(=O)Nc2ccc(C(=O)N3CCN(C)CC3)cc2)nnc1N)c1c(Cl)ccc(F)c1Cl
Label class: inactive
//
Compound: C=CC(=O)N1CCC[C@H](n2c(=O)n(-c3ccc(Oc4ccccc4)cc3)c3c(N)ncnc32)C1
Label class: inactive
//
Compound: Nc1ncnc2c1c(-c1cccc(OCc3ccccc3)c1)cn2[C@H]1C[C@@H](CN2CCC2)C1 [AEW-541]
Label class: inactive
//
Compound: Cn1ncc(Cl)c1-c1cc(C(=O)N[C@H](CN)Cc2ccc(F)c(F)c2)oc1Cl [UPROSERTIB]
Label class: inactive
//
Compound: Cc1csc(-c2nnc(Nc3ccc(Oc4ncccc4-c4ccnc(N)n4)cc3)c3ccccc23)c1 [AMG-900]
Label class: inactive
//
Compound: COc1cc2c(Nc3ccc(Cl)c(Cl)c3F)ncnc2cc1OC[C@@H]1C[C@@H]2CN(C)C[C@@H]2C1 [TESEVATINIB]
Label class: inactive
//
Compound: Cc1cc(Nc2ncnc3ccc(NC4=NC(C)(C)CO4)cc23)ccc1Oc1ccn2ncnc2c1 [TUCATINIB]
Label class: inactive
//
Compound: CCn1c(C(=O)N(C2CC2)C2CC2)cc2c3c(ncn3C)c(Nc3cc(C)n(C)n3)nc21 [BMS-911543]
Label class: inactive

* * *

# Experimental system: Dual specificity protein kinase CLK4 (Homo sapiens); note: in the data inactive means no Kd found up to 30 µM
# Sequence (Q9HAZ1 whole entry): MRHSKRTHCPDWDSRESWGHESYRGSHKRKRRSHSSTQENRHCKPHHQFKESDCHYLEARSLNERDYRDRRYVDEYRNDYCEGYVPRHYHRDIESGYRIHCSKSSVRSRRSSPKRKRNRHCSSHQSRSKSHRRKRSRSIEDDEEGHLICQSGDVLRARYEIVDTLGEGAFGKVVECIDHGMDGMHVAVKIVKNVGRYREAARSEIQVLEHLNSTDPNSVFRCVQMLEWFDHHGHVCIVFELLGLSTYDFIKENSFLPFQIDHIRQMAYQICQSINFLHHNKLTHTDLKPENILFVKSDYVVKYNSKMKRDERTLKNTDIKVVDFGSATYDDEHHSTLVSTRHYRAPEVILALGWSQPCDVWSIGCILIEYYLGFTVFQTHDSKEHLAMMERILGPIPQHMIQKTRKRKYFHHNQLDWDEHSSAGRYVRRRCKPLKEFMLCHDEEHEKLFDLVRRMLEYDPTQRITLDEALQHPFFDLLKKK
Calls of active or inactive are those of the source.
Classes used: active, inactive

Molecule: Cc1cccc(-c2nn3c(c2-c2ccnc4ccc(C(N)=O)cc24)CCC3)n1
Label class: inactive
--
Molecule: O=C(Cc1ccc(-c2ccc(OCCN3CCOCC3)cc2)cn1)NCc1ccccc1
Label class: inactive
--
Molecule: CCn1cc(-c2ccnc3[nH]c(-c4cccc(CN(C)C)c4)cc23)c(-c2ccc(NC(=O)N(C)C)cc2)n1
Label class: inactive
--
Molecule: C=CC(=O)Nc1cc2c(Nc3ccc(F)c(Cl)c3)ncnc2cc1C#CC(C)(C)N1CCN(C)CC1 [AV-412 FREE BASE]
Label class: inactive
--
Molecule: C[C@@H](N)c1ccc(C(=O)Nc2ccnc3[nH]ccc23)cc1
Label class: inactive
--
Molecule: N#CC1(c2ccc(NC(=O)c3cccnc3NCc3ccncc3)cc2)CCCC1
Label class: inactive
--
Molecule: CO[C@H]1C[C@@H]2CC[C@@H](C)[C@@](O)(O2)C(=O)C(=O)N2CCCC[C@H]2C(=O)O[C@H]([C@H](C)C[C@@H]2CC[C@@H](OP(C)(C)=O)[C@H](OC)C2)CC(=O)[C@H](C)/C=C(\C)[C@@H](O)[C@@H](OC)C(=O)[C@H](C)C[C@H](C)/C=C/C=C/C=C/1C
Label class: inactive
--
Molecule: CNC(=O)c1nn(C)c2c1C(C)(C)Cc1cnc(Nc3ccc(N4CCN(C)CC4)cc3)nc1-2
Label class: active
--
Molecule: CO[C@H]1C[C@@H]2CC[C@@H](C)[C@@](O)(O2)C(=O)C(=O)N2CCCC[C@H]2C(=O)O[C@H]([C@H](C)C[C@@H]2CC[C@@H](OC(=O)C(C)(CO)CO)[C@H](OC)C2)CC(=O)[C@H](C)/C=C(\C)[C@@H](O)[C@@H](OC)C(=O)[C@H](C)C[C@H](C)/C=C/C=C/C=C/1C
Label class: inactive
--
Molecule: C[C@@H](NC(=O)c1ncnc(N)c1Cl)c1ncc(C(=O)Nc2cc(C(F)(F)F)c(Cl)cn2)s1
Label class: inactive
--
Molecule: CCn1c(C(=O)N(C2CC2)C2CC2)cc2c3c(ncn3C)c(Nc3cc(C)n(C)n3)nc21
Label class: inactive
--
Molecule: Cc1cc(Nc2ncnc3ccc(NC4=NC(C)(C)CO4)cc23)ccc1Oc1ccn2ncnc2c1
Label class: inactive
--
Molecule: CC(C)(C)c1nc(-c2cccc(NS(=O)(=O)c3c(F)cccc3F)c2F)c(-c2ccnc(N)n2)s1
Label class: inactive
--
Molecule: Cc1nc(NC(=O)N2CCC[C@H]2C(N)=O)sc1-c1ccnc(C(C)(C)C(F)(F)F)c1
Label class: inactive

* * *

Each entry below carries its recorded Kd.
# Experimental system: Serine/threonine-protein kinase TAO1 (Homo sapiens); note: in the data inactive means no Kd found up to 30 µM
# Sequence (Q7L7X3 whole entry): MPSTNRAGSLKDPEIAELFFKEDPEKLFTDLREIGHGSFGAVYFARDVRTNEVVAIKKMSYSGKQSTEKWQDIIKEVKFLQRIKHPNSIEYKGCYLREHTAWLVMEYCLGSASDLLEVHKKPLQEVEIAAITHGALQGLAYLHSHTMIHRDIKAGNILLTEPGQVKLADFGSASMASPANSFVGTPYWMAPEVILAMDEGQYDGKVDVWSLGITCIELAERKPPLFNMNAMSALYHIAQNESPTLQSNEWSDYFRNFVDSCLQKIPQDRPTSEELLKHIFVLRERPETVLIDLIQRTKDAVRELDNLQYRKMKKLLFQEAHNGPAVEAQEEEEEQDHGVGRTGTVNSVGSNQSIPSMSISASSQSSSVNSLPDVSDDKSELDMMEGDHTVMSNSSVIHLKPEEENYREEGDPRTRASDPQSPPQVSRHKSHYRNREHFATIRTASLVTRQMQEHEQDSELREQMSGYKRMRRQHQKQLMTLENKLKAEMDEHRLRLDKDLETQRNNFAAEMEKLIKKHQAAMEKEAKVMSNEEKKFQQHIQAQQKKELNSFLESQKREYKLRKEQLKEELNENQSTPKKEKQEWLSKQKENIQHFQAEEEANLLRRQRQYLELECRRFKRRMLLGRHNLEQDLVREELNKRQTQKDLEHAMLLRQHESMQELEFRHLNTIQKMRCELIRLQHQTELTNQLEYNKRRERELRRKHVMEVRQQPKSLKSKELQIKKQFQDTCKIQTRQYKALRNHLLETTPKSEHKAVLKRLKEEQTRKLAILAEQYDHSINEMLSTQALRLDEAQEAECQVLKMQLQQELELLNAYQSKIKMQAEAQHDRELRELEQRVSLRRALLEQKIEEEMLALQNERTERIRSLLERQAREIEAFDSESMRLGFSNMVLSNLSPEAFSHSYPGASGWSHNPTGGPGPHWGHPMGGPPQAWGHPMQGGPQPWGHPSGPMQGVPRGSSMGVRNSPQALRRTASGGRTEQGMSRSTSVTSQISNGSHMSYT
Calls of active or inactive are those of the source.

Compound: NC(=O)Nc1cc(-c2cccc(F)c2)sc1C(=O)N[C@H]1CCCNC1 [AZD-7762]
Experimental system: Serine/threonine-protein kinase TAO1 (Homo sapiens); note: in the data inactive means no Kd found up to 30 µM
Kd: > 30 µM (inactive)

Compound: Cc1csc(-c2nnc(Nc3ccc(Oc4ncccc4-c4ccnc(N)n4)cc3)c3ccccc23)c1 [AMG-900]
Experimental system: Serine/threonine-protein kinase TAO1 (Homo sapiens); note: in the data inactive means no Kd found up to 30 µM
Kd: 1.9 µM (active)

Compound: C[C@H]1CNCCCN1S(=O)(=O)c1cccc2cncc(F)c12
Experimental system: Serine/threonine-protein kinase TAO1 (Homo sapiens); note: in the data inactive means no Kd found up to 30 µM
Kd: > 30 µM (inactive)

Compound: CO[C@H]1C[C@@H]2CC[C@@H](C)[C@@](O)(O2)C(=O)C(=O)N2CCCC[C@H]2C(=O)O[C@H]([C@H](C)C[C@@H]2CC[C@@H](OC(=O)C(C)(CO)CO)[C@H](OC)C2)CC(=O)[C@H](C)/C=C(\C)[C@@H](O)[C@@H](OC)C(=O)[C@H](C)C[C@H](C)/C=C/C=C/C=C/1C [TEMSIROLIMUS]
Experimental system: Serine/threonine-protein kinase TAO1 (Homo sapiens); note: in the data inactive means no Kd found up to 30 µM
Kd: > 30 µM (inactive)
